Documented CC50 across a set of molecules
test system: mock-infected MT-4 cells; assay: Cytotoxicity in mock-infected MT-4 cells (MTT)

For the molecule COc1cccc(Cc2nc(N)nc(Nc3ccc(C#N)cc3)n2)c1 [Compound 47] , what CC50 is on record? > 20 µM

For the molecule CCOc1cccc(Cc2nc(N)nc(Nc3ccc(C#N)cc3)n2)c1 [Compound 48] , what CC50 is on record? > 20 µM

For the molecule CC(=N)Nc1nc(Cc2c(Cl)cccc2Cl)nc(Nc2ccc(C#N)cc2)n1 [Compound 28] , what CC50 is on record? > 100 µM
